molecular target: UniProt:P35354; assay: COX inhibitor screening assay kit, COX-2; format: biochemical; conditions: calculated from COX-1 and COX-2 IC50
experimental-endpoint: SI (selectivity index)
Keep the answer to the number alone.

query: Answer briefly: SI (selectivity index) recorded on UniProt:P35354 for COc1cccc(-c2nn(-c3ccccc3)cc2CN(C)CCc2cn[nH]c2)c1 [Compound 2]
result: 132.64

query: Tell me SI (selectivity index) of COc1ccc(CN(Cc2ccc(F)cc2)CC2CCCO2)cc1CO (stereo not shown) [Compound 1] when tested on UniProt:P35354.
result: 36.3

query: # lookup: UniProt:P35354 SI (selectivity index), key = O=C(O)COc1ccc(Cl)cc1C1CC(=O)Nc2cc3[nH]ncc3cc21 (stereo not shown) [Compound 4]
result: 95.068

query: Provide SI (selectivity index), recorded with UniProt:P35354, of O=C(O)CC1COCCN1Cc1cccc(-c2ccccn2)c1 (stereo not shown) [Compound 3]
result: 190.88

----------
Reported IC50 for target or system COX-2 (Homo sapiens (Human), UniProt P35354), by entry.
API: value field is a number in µM; no unit string.

query: Tell me its IC50 given COc1ccc(CN(Cc2ccc(F)cc2)CC2CCCO2)cc1CO (stereo not shown) as the entry.
result: 0.21

query: Fill in IC50 for record COc1cccc(-c2nn(-c3ccccc3)cc2CN(C)CCc2cn[nH]c2)c1
result: 0.08

query: Supply IC50 value. Item: O=C(O)CC1COCCN1Cc1cccc(-c2ccccn2)c1 (stereo not shown)
result: 0.06

query: # return recorded IC50 for input O=C(O)COc1ccc(Cl)cc1C1CC(=O)Nc2cc3[nH]ncc3cc21 (stereo not shown)
result: 0.097

Values from patent US11786535B1
